- experimental system: MAPKAPK2 enzyme (HIS-MK2, Invitrogen PV4019) (Homo sapiens)
Counter-ions that a name gives are not always drawn.
observation type: IC50 (nM)

The examples below pair each entry with its known result.
{"columns": ["compound", "measurement unit", "IC50"],
 "data": [
  ["O=C1NCC2(CC2)c2[nH]c3c(c21)CCc1cnc(-c2ccncc2)cc1-3", "nM", 55],
  ["O=C(NCc1ccccc1)c1cncc(-c2ncc3c(n2)-c2[nH]c4c(c2CC3)C(=O)NCC42CC2)c1", "nM", 86]
]}

I. CC(C)Oc1ccc(-c2cc3c(cn2)CCc2c-3[nH]c3c2C(=O)NC2(CC2)C3)cn1
II. CCN1CC2(C1)c1[nH]c3c(c1C(=O)NC21CC1)CCc1cnc(-c2ccc(OC)nc2)cc1-3
III. CN1CCOc2cc(-c3cc4c(cn3)CCc3c5c(n(C)c3-4)CC3(CNC3)NC5=O)ccc21 [Example 145, hydrochloride]
## Task Hi! Can you put these in order of IC50, lowest number first? Sort and list the labels as requested.
## Result II, III, I

* * *

- experimental system: human MK2 (Homo sapiens, UniProt P49137)
- Sequence (P49137 whole entry): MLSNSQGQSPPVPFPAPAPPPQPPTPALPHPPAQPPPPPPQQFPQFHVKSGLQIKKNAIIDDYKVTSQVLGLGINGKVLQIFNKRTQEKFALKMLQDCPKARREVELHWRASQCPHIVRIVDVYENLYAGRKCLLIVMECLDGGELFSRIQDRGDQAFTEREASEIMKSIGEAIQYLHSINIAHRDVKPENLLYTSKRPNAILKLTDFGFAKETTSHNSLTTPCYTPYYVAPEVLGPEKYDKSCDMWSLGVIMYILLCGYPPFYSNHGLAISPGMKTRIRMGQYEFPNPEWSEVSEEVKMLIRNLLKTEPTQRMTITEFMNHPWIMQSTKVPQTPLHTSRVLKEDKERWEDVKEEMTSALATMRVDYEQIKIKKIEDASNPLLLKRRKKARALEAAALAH
Where a name gives a salt, the structure may show the parent alone.
observation type: IC50 (µM)

{"columns": ["molecule", "reported"],
 "data": [
  ["COc1ccc(-c2ncc3c(n2)-c2[nH]c4c(c2CC3)C(=O)NC2(CNC2)C4)cc1 [Example 18, hydrochloride]", 0.018]
]}

1. O=C1NC2(CNC2)Cc2[nH]c3c(c21)CCc1cnc(-c2cccc(F)c2)cc1-3 [Example 24, hydrochloride]
2. Cn1c2c(c3c1C1(CNC1)CNC3=O)CCc1cnc(-c3ccc(C(F)(F)F)nc3)cc1-2 [Example 169, hydrochloride]
3. COCCOc1ccc(-c2cc3c(cn2)CCc2c-3[nH]c3c2C(=O)NCC32CC2)cc1C#N [Example 309]
## Task Rank descending by IC50. Answer by listing the labels in the requested order.
## Result 2, 3, 1

* * *

Here's a batch of compounds along with measured pIC50 for human MK2 (Homo sapiens, UniProt P49137).
pIC50: −log10 of the molar value.
observation type: pIC50

1. COCCOc1cc(-c2cc3c(cn2)CCc2c-3[nH]c3c2C(=O)NCC32CC2)ccc1F
2. O=C1NC2(CC2)Cc2[nH]c3c(c21)CCc1cnc(-c2cncc(OC4CCOCC4)c2)cc1-3
3. CN(C)CCOc1cc(-c2cc3c(cn2)CCc2c-3[nH]c3c2C(=O)NCC32CC2)ccc1F
## Task Sort the items above on pIC50, descending. Present the labels in the sequence the task asks for.
## Result 3, 2, 1
(3: 7.57, 2: 7.28, 1: 7.01)

* * *

- experimental system: MAPKAPK2 enzyme (HIS-MK2, Invitrogen PV4019) (Homo sapiens)
Structures can show the parent of a compound that is named as a salt.
observation type: IC50 (nM)

1. Cn1c2c(c3c1-c1cc(-c4cccc(N5CCOCC5)c4)ncc1CC3)C(=O)NC1(CNC1)C2 [Example 146, hydrochloride]
2. O=C1NCC2(CC2)c2[nH]c3c(c21)CCc1cnc(-c2cncc(N4CCOCC4)c2)cc1-3
## Task Hi team, can someone confirm which has the larger IC50: 1 or 2 ? Thanks. // output: label of the selected item
## Result 1

a. O=C(NCc1ccccc1)c1ccc(-c2cc3c(cn2)CCc2c-3[nH]c3c2C(=O)NC2(CC2)C3)o1
b. Cn1c2c(c3c1-c1cc(-c4cncc(-c5ccccc5F)c4)ncc1CC3)C(=O)NC1(CNC1)C2 [Example 135, hydrochloride]
c. COc1ccc(-c2cc3c(cn2)CCc2c4c(n(C)c2-3)CC2(CNC2)NC4=O)cc1OC [Example 144, hydrochloride]
d. COc1ccc(-c2ncc3c(n2)-c2c(c4c(n2C)CC2(CNC2)NC4=O)CC3)cc1 [Example 131, hydrochloride]
## Task Your job: order these 4 records by IC50, ascending. Please list each label once, in the requested order.
## Result d, a, b, c

a. Cn1c2c(c3c1-c1cc(-c4cccc(F)c4)ncc1CC3)C(=O)NC1(CNC1)C2 [Example 133, hydrochloride]
b. COc1ncc(-c2cc3c(cn2)CCc2c-3[nH]c3c2C(=O)NC2(CC2)C32CC2)cc1F
## Task Which record would sort first by descending IC50, a or b ? Refer to your chosen item by its label in the answer.
## Result b

* * *

Structures can show the parent of a compound that is named as a salt.
Observed IC50, system human MK2 (Homo sapiens).
observation type: IC50 (nM)

{"columns": ["molecule", "measurement unit", "IC50"],
 "data": [
  ["C[C@H](NC(=O)c1cccc(-c2cc3c(cn2)CCc2c-3[nH]c3c2C(=O)NC2(CC2)C3)c1)c1ccccc1", "nM", 20]
]}

P. O=C1NC2(CNC2)Cc2[nH]c3c(c21)CCc1cnc(-c2cccc(F)c2)nc1-3 [Example 26, hydrochloride]
Q. CCOc1ccc(-c2cc3c(cn2)CCc2c-3[nH]c3c2C(=O)NC2(CC2)C3)cn1
R. COc1cncc(-c2cc3c(cn2)CCc2c-3[nH]c3c2C(=O)NC2(CC2)C3)c1
## Task // ranking: key=IC50, reverse=True Provide the ranking by listing each label in its place in the requested order.
## Result Q, R, P
(Q: 91 nM, R: 42 nM, P: 15 nM)

* * *

Form: system (MAPKAPK2 enzyme (HIS-MK2, Invitrogen PV4019) (Homo sapiens, UniProt P49137)), quantity (IC50), values below.
Counter-ions that a name gives are not always drawn.
observation type: IC50 (nM)

Before answering, review these 5 worked examples.
{"columns": ["molecule", "experimental system", "measurement unit", "IC50"],
 "data": [
  ["COc1ccc(-c2cc3c(cn2)CCc2c4c(n(C)c2-3)CC2(CNC2)NC4=O)cn1 [Example 141, hydrochloride]", "MAPKAPK2 enzyme (HIS-MK2, Invitrogen PV4019) (Homo sapiens, UniProt P49137)", "nM", 17],
  ["CC(C)(O)CCc1ccc(-c2cc3c(cn2)CCc2c-3[nH]c3c2C(=O)NCC32CC2)cc1", "MAPKAPK2 enzyme (HIS-MK2, Invitrogen PV4019) (Homo sapiens, UniProt P49137)", "nM", 34],
  ["Cn1c2c(c3c1-c1cc(-c4ccc5c(c4)OCCO5)ncc1CC3)C(=O)NC1(CNC1)C2 [Example 148, hydrochloride]", "MAPKAPK2 enzyme (HIS-MK2, Invitrogen PV4019) (Homo sapiens, UniProt P49137)", "nM", 15],
  ["O=C1NC2(CC2)Cc2[nH]c3c(c21)CCc1cnc(-c2ccc(N4CCNCC4)cc2)cc1-3 [Example 216, hydrochloride]", "MAPKAPK2 enzyme (HIS-MK2, Invitrogen PV4019) (Homo sapiens, UniProt P49137)", "nM", 18],
  ["COc1ccc(-c2cc3c(cn2)CCc2c-3[nH]c3c2C(=O)NCC32CC2)cn1", "MAPKAPK2 enzyme (HIS-MK2, Invitrogen PV4019) (Homo sapiens, UniProt P49137)", "nM", 22]
]}

1. CC(C)(N)C#Cc1ccc(-c2cc3c(cn2)CCc2c-3[nH]c3c2C(=O)NC2(CC2)C3)cc1
2. CN(C)c1ccc(-c2cc3c(cn2)CCc2c-3[nH]c3c2C(=O)NC2(CC2)C32CC2)cn1
## Task Which gives the smaller IC50 number: 1 or 2 ? Write down the label of the entry you select.
## Result 1
(1: 24 nM, 2: 38 nM)

* * *

- experimental system: human MK2 (Homo sapiens)
Structures can show the parent of a compound that is named as a salt.
observation type: IC50 (nM)

// solved cases for IC50 follow
{"columns": ["molecule", "experimental system", "IC50, nM"],
 "data": [
  ["O=C1NCC2(CNC2)c2[nH]c3c(c21)CCc1cnc(-c2ccc(C(F)(F)F)nc2)cc1-3 [Example 166, hydrochloride]", "human MK2 (Homo sapiens)", 7],
  ["CN(C)CCOc1ccc(-c2cc3c(cn2)CCc2c-3[nH]c3c2C(=O)NCC32CC2)cc1C#N [Example 308]", "human MK2 (Homo sapiens)", 15],
  ["O=C1NC2(CCC2)Cc2[nH]c3c(c21)CCc1cnc(-c2ccc(OC4CCOCC4)nc2)cc1-3 [Example 108]", "human MK2 (Homo sapiens)", 49],
  ["Cn1c2c(c3c1-c1nc(-c4cccc(F)c4)ncc1CC3)C(=O)NC1(CNC1)C2 [Example 27, hydrochloride]", "human MK2 (Homo sapiens)", 43],
  ["CN1CCN(c2ccc(-c3cc4c(cn3)CCc3c-4[nH]c4c3C(=O)NCC43CC3)cc2C#N)CC1 [Example 306]", "human MK2 (Homo sapiens)", 9]
]}

I. COCCOc1cncc(-c2cc3c(cn2)CCc2c-3[nH]c3c2C(=O)NC2(CCC2)C3)c1 [Example 3]
II. O=C1NCC2(CC2)c2[nH]c3c(c21)CCc1cnc(/C=C/c2ccccc2)cc1-3 [Example 2]
## Task Please state the entry with greater IC50 among I and II . Please identify the chosen entry by its label.
## Result I
(I: 63 nM, II: 21 nM)
